Recorded values, source paper PMC10250219.

molecular target: OGG1 WT (untagged) (human, UniProt O15527 1-345); test: EMSA
Sequence (O15527 whole entry): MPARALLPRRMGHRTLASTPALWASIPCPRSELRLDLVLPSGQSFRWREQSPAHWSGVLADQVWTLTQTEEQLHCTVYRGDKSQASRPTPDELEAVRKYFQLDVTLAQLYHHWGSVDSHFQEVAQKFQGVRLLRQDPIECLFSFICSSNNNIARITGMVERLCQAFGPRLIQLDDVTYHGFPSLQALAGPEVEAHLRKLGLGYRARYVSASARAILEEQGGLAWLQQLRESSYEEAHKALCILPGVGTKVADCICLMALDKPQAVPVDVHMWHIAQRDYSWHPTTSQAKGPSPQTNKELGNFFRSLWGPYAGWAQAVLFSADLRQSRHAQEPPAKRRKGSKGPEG
Quantity: Kd (pM)
Value expressed in pM; do not type the unit.

Task: # return recorded Kd for entry 24-mer 8-oxoG:C duplex (dsDNA, 8-oxoG at position 13 of strand 1 (opposite C)) DNA 1: CTGATCGATGACGCCTGACATGAT DNA 2: ATCATGTCAGGCGTCATCGATCAG
Output: 420
